Molecular target: Tyrosyl-tRNA synthetase, putative (Trypanosoma cruzi (strain CL Brener)) (UniProt Q4DSP6)
Sequence (Q4DSP6 as listed by the source): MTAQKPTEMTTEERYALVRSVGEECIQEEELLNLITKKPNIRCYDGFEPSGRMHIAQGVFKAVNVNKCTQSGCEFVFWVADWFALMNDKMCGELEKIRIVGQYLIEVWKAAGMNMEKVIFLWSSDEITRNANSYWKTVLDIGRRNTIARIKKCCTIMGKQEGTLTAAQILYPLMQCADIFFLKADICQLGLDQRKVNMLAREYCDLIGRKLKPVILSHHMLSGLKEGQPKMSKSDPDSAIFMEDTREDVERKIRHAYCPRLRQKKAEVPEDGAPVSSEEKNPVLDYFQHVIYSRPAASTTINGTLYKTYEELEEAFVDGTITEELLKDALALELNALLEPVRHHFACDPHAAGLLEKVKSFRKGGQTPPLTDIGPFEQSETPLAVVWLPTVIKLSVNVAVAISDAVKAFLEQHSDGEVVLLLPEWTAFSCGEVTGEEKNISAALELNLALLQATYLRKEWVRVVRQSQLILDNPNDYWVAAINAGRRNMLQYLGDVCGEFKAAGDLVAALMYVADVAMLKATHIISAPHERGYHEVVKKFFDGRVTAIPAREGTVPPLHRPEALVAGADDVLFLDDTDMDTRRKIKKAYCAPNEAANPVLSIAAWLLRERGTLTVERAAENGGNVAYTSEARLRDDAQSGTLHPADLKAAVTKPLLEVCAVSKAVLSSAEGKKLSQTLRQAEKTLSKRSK
Assay: Trypanosoma cruzi tyrosyl tRNA synthetase (TcYRS) _High Tyrosine SOP; also: in the data most compounds retested in dose-response had high values
Format: functional
Set-up: scale not given: direction of the effect not stated beside the values
Settings: 30 µM
test.readout: Percent Effect (%)

[
  {
    "compound": "NC(=O)C1CCN(Cn2nc(-c3ccccc3)oc2=O)CC1",
    "test.readout": "Percent Effect",
    "obs.value": 4.3
  },
  {
    "compound": "Cc1noc(C)c1CNCC1CCCN1c1cccnn1 (configuration not stated)",
    "test.readout": "Percent Effect",
    "obs.value": 1.91
  },
  {
    "compound": "CN(CC(=O)N1CCN(c2ccccc2F)CC1)c1cnccn1",
    "test.readout": "Percent Effect",
    "obs.value": 5.94
  },
  {
    "compound": "Cc1cccc(CC(=O)NCCCOC(C)C)c1",
    "test.readout": "Percent Effect",
    "obs.value": 9.71
  },
  {
    "compound": "Cc1nc(-c2ccc(Cl)s2)sc1C(=O)NCCS(N)(=O)=O",
    "test.readout": "Percent Effect",
    "obs.value": 5.94
  },
  {
    "compound": "CCCn1ncc(CN2C[C@@H]3CCCN3C[C@@H]2CCSC)c1C",
    "test.readout": "Percent Effect",
    "obs.value": 3.23
  },
  {
    "compound": "Cc1ccc2ncnc(N3CCOCC3c3c(C)nn(C)c3C)c2c1 (configuration not stated)",
    "test.readout": "Percent Effect",
    "obs.value": 6.01
  },
  {
    "compound": "CNC(=O)CC1CC2(CCN(Cc3nccs3)CC2)c2ccccc21 (configuration not stated)",
    "test.readout": "Percent Effect",
    "obs.value": 7.92
  },
  {
    "compound": "COc1ccc(C2OC(COc3ccccc3Br)=NN2C(C)=O)cc1 (configuration not stated)",
    "test.readout": "Percent Effect",
    "obs.value": 0
  },
  {
    "compound": "Cc1ccc2c(n1)N(CCN(C)C)CCN(C(=O)c1ccc[nH]1)C2",
    "test.readout": "Percent Effect",
    "obs.value": 1.06
  },
  {
    "compound": "CCc1noc(C(C)N2CCN(Cc3ncc(C(C)(C)C)o3)CC2)n1 (configuration not stated)",
    "test.readout": "Percent Effect",
    "obs.value": 3.43
  },
  {
    "compound": "COc1ccccc1CC(=O)N1CCC(NCc2c[nH]nc2C)CC1",
    "test.readout": "Percent Effect",
    "obs.value": 7.92
  }
]

###

Below, each entry is listed with its recorded Percent Effect.
Target: Chromo domain-containing protein 1 (Saccharomyces cerevisiae (strain ATCC 204508 / S288c) (Baker's yeast)) (UniProt P32657)
Sequence (P32657 whole entry, the tested form may be a part): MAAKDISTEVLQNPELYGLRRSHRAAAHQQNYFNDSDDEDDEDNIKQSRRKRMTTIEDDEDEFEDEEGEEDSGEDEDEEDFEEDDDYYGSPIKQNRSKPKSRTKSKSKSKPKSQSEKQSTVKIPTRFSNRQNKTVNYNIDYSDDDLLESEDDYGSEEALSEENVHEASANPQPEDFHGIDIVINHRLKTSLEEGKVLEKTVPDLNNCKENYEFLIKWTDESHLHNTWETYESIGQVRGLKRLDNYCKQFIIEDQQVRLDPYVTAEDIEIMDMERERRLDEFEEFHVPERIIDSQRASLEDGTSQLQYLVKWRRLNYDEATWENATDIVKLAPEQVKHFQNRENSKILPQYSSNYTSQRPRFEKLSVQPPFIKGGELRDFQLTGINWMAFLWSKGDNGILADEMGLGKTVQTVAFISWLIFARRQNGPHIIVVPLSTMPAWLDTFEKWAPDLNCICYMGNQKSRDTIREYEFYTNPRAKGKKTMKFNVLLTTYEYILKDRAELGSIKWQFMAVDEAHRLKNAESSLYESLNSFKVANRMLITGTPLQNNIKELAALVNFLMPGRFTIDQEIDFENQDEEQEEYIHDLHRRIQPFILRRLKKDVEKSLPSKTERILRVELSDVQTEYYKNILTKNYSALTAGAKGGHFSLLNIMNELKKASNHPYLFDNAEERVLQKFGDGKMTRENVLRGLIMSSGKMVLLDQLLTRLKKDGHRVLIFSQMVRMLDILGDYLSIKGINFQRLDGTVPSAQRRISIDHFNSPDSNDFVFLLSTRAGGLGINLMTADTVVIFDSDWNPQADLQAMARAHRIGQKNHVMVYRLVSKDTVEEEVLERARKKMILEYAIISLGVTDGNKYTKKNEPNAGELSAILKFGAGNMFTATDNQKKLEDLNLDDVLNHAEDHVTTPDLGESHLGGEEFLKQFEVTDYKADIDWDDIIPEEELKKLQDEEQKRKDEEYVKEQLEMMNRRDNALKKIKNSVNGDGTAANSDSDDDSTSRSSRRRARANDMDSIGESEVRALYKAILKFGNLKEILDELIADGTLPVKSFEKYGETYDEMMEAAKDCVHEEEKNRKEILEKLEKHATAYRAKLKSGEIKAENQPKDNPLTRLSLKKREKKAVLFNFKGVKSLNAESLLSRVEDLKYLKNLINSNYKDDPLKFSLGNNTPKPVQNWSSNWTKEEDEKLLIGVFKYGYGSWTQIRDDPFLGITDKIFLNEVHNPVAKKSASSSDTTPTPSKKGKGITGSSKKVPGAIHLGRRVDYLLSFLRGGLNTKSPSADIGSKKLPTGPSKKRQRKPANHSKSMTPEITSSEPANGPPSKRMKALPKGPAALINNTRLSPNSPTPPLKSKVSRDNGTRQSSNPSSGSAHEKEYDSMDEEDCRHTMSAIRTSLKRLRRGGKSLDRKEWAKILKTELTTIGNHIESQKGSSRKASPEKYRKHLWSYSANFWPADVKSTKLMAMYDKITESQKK
Assay: ScCHD-1 Enzyme Inhibition Assay; also: in the data most compounds retested in dose-response had high values
Format: functional
Design: scale not given: direction of the effect not stated beside the values
Conditions: 30 µM

[
  {
    "compound": "Cc1cc2c(=O)n3c(nc2s1)CCN(C(=O)c1ccncc1)CC3",
    "Percent Effect": "-4.17%"
  },
  {
    "compound": "CCN(CC)C(=O)CCc1c(C)nc2cc(O)nn2c1C",
    "Percent Effect": "-6.56%"
  },
  {
    "compound": "CC(C)(C)C(=O)N1CCCC1c1nc(O)cc(-c2ccccn2)n1 (stereo unspecified)",
    "Percent Effect": "-13.5%"
  },
  {
    "compound": "CCCS(=O)(=O)Nc1ccc2c(c1)OCC(C)(C)C(=O)N2C",
    "Percent Effect": "-5.87%"
  },
  {
    "compound": "Cc1ccc(CN(C)C(=O)CN2CC(n3cccn3)C2)o1",
    "Percent Effect": "-1.83%"
  },
  {
    "compound": "COc1ccccc1Oc1ncccc1CNC(=O)[C@@H](C)NC(C)=O",
    "Percent Effect": "2.74%"
  }
]

###

Biological target: AMP-activated protein kinase, AMPK (Homo sapiens) (UniProt P54646+O43741+P54619+Q9UGJ0+Q9Y478+Q13131+Q9UGI9)
Experiment: AMP-dependent Kinase enzyme assay. An in vitro enzyme assay that detects ADP turnover that is directly proportional to AMPK activity. This uses naive AMPK that is activated during the assay with MK-8722
Format: functional
Parameters: scale not given: direction of the effect not stated beside the values
Conditions: 30 µM
test.readout: Percent Effect (%)

[
  {
    "compound": "O=C1COC2(CCN(CC3CC3)CC2)CN1c1ccccc1",
    "obs.value": -5.09
  },
  {
    "compound": "CCOC(CC)C(=O)NCCC(=O)N1CCN(c2ccccn2)CC1 (configuration not stated)",
    "obs.value": 4.4
  },
  {
    "compound": "NC(=O)C1(c2cnccn2)CCCN1Cc1cc2ccccc2o1 (configuration not stated)",
    "obs.value": 11.2
  },
  {
    "compound": "O=C1OCCN1CCOc1nc(-c2ccccc2Cl)no1",
    "obs.value": -3.77
  },
  {
    "compound": "CCn1nccc1CNC(=O)C(C)n1cc2c(n1)c(C)nn2C (configuration not stated)",
    "obs.value": -7.37
  },
  {
    "compound": "Cc1noc(C)c1CN1CC[C@H]2OCC[C@@H](C(=O)N3CCCO3)[C@@H]2C1",
    "obs.value": -5.74
  },
  {
    "compound": "COc1cccc(CCNC(=O)CN2CCN(C)CC2C)c1 (configuration not stated)",
    "obs.value": -4.34
  },
  {
    "compound": "CC(C)Oc1ncnc2c1CCN(C(=O)c1cccn1C)CC2",
    "obs.value": 9.51
  },
  {
    "compound": "Cc1cnn(CCNCc2csc(C)n2)c1",
    "obs.value": -1.53
  },
  {
    "compound": "O=C1CN(Cc2nnc(-c3ccc(Br)cc3)o2)CCN1",
    "obs.value": -9.97
  },
  {
    "compound": "Cc1cnn(C2CCCN(C(=O)Cc3cn4ccccc4n3)C2)c1 (configuration not stated)",
    "obs.value": -2.41
  },
  {
    "compound": "CN(Cc1ccc2c(c1)OCCO2)C(=O)NCCc1cnn(C)c1",
    "obs.value": -2.51
  }
]

###

Below, each entry is listed with its recorded Percent Effect.
Target: Tyrosyl-tRNA synthetase, putative (Trypanosoma cruzi (strain CL Brener))
Experiment: Trypanosoma cruzi tyrosyl tRNA synthetase (TcYRS) _High Tyrosine SOP; also: in the data most compounds retested in dose-response had high values
Format: functional
Parameters: scale not given: direction of the effect not stated beside the values
Conditions: 30 µM
test.readout: Percent Effect (%)

[
  {
    "molecule": "Cc1cccc(C(=O)N2C[C@@H]3CCN(c4cccnc4)C[C@@H]3C2)c1",
    "obs.value": 1.06
  },
  {
    "molecule": "CN(C)c1ccc(C(=O)N2CCN(C(=O)N3CCCCC3)CC2)nn1",
    "obs.value": 0
  },
  {
    "molecule": "CCn1cc(NC(=O)C2CCN(Cc3ccccc3C#N)CC2)cn1",
    "obs.value": 9.38
  },
  {
    "molecule": "CCN(Cc1ccc2c(c1)OCCO2)C(=O)NCc1nc(C)cs1",
    "obs.value": 4.76
  },
  {
    "molecule": "O=C(Nc1ccc(F)cc1)N1C[C@H]2CC[C@@H]1CN(Cc1cccnc1)C2",
    "obs.value": 10.8
  },
  {
    "molecule": "CCOc1cccc(CNc2ccccc2C(=O)OC)c1O",
    "obs.value": 3.17
  },
  {
    "molecule": "O=C(NCCN1CCNCC1)c1c(O)c2ccccc2[nH]c1=O",
    "obs.value": 0
  },
  {
    "molecule": "O=C(NCc1ccccc1F)N1CCC(C2OCCO2)CC1",
    "obs.value": 4.25
  },
  {
    "molecule": "CC(=O)Nc1nc(C(=O)N2CCCC(n3nc(C)cc3C)C2)cs1 (stereo unspecified)",
    "obs.value": -2.46
  },
  {
    "molecule": "Cc1cncc(C(=O)N2CCCC(C(=O)CCc3ccccc3)C2)c1 (stereo unspecified)",
    "obs.value": 4.3
  },
  {
    "molecule": "CCS(=O)(=O)N1CCC(c2cc3n(n2)[C@@H](C(F)(F)F)C[C@@H](C)N3)CC1",
    "obs.value": -1.07
  },
  {
    "molecule": "O=C(c1cccs1)N1CCC(O)(CN2CCc3ccccc3C2)C1 (stereo unspecified)",
    "obs.value": 2.15
  },
  {
    "molecule": "O=C(CSCC1CC1)N1CCCC(c2nccn2Cc2ccncc2)C1 (stereo unspecified)",
    "obs.value": 3.16
  },
  {
    "molecule": "Cn1ncc2c(=O)[nH]c(N3CCN(C(=O)c4ccsc4)CC3)nc21",
    "obs.value": -1.48
  },
  {
    "molecule": "COCCN(C)Cc1ccc(OC)c(OC(F)F)c1",
    "obs.value": -1.07
  },
  {
    "molecule": "CN(Cc1ccc(N2CCCCC2)cc1)Cc1noc(C(C)(C)C)n1",
    "obs.value": -2.15
  },
  {
    "molecule": "CCN(CC)S(=O)(=O)N1CCCC(c2ccc(C(=O)O)cc2)C1 (stereo unspecified)",
    "obs.value": 2.65
  },
  {
    "molecule": "Cc1nc(NCc2ccc(C)o2)cc(C(=O)N2CCOCC2)n1",
    "obs.value": 4.3
  },
  {
    "molecule": "Cc1nc(CCCNC(=O)C2CC(=O)N(C(C)(C)C)C2)sc1C (stereo unspecified)",
    "obs.value": 5.21
  },
  {
    "molecule": "CC(NC(=O)NCCN1CCCCCC1=O)c1nncn1C (stereo unspecified)",
    "obs.value": 7.92
  },
  {
    "molecule": "CCOC(=O)c1c(NC(=O)CN2CCN(C(C)=O)CC2)sc2c1CCC2",
    "obs.value": 4.25
  },
  {
    "molecule": "CN1CCCN(C[C@@H]2CN(C(=O)CCC3CCCC3)C[C@@H]2CO)CC1",
    "obs.value": 6.45
  },
  {
    "molecule": "O=C(NC1CCCC1)[C@@H]1CN(Cc2nccs2)C[C@H]2OCC[C@H]21",
    "obs.value": 3.19
  },
  {
    "molecule": "COc1ccc(CN2C[C@@H](OCc3csc(C)n3)[C@H]3COC[C@H]32)cc1",
    "obs.value": 2.08
  },
  {
    "molecule": "CCN(CC)Cc1cn2c(n1)CN(C(=O)c1cnccn1)CC2",
    "obs.value": 3.24
  },
  {
    "molecule": "CCc1nc(C2CCCN2Cc2nc(CCOC)no2)no1 (stereo unspecified)",
    "obs.value": 3.23
  },
  {
    "molecule": "COc1c(CNCC(O)c2cccc(F)c2)c(C(C)C)nn1C (stereo unspecified)",
    "obs.value": 9.52
  },
  {
    "molecule": "O=C(NCc1ccccn1)[C@@H]1COC[C@H]2CN(C3CCOCC3)C[C@H]21",
    "obs.value": 5.41
  },
  {
    "molecule": "O=C(c1cccc2cccnc12)N1CCCN(c2cccnn2)CC1",
    "obs.value": 2.86
  },
  {
    "molecule": "Cc1nn(C(C)C)c(C)c1NC(=O)c1ccncc1",
    "obs.value": 10.4
  },
  {
    "molecule": "Cc1cc(C(F)(F)F)nn1C(C)C(=O)Nc1ccncc1 (stereo unspecified)",
    "obs.value": 2.12
  },
  {
    "molecule": "CCCn1nc2c(cc1=O)CN(Cc1nc(CCOC)no1)CC2",
    "obs.value": -7.92
  },
  {
    "molecule": "O=C(NCc1cncc2c1CCN(Cc1cccs1)C2)C1CC1",
    "obs.value": 5.32
  },
  {
    "molecule": "CCOc1ccc(CC(CNC(=O)c2occc2C)C(N)=O)cc1 (stereo unspecified)",
    "obs.value": 7.62
  },
  {
    "molecule": "CS(=O)(=O)N1C[C@@H]2CC[C@H](C1)N(Cc1cscn1)C2=O",
    "obs.value": 6.25
  },
  {
    "molecule": "N#Cc1cccc(C(=O)N2CCc3ncc(Cn4cccn4)n3CC2)c1",
    "obs.value": -3.12
  },
  {
    "molecule": "COCC1CN(C(=O)C2=CCCCC2)Cc2cnn(CC3CC3)c21 (stereo unspecified)",
    "obs.value": 7.41
  },
  {
    "molecule": "CN(Cc1cnn(C)c1)C(=O)NC1CCN(c2ncccn2)CC1",
    "obs.value": 1.94
  },
  {
    "molecule": "COc1cc(NC(=O)c2ccccc2F)c(C(=O)N(C)C)cc1OC",
    "obs.value": 3.23
  },
  {
    "molecule": "CCS(=O)(=O)N1CCC(c2nnc(CN3CCCC3)n2C2CC2)CC1",
    "obs.value": 7.1
  },
  {
    "molecule": "CCc1cnc(CN(C)C2CCN(CCc3ccccn3)C2)o1 (stereo unspecified)",
    "obs.value": 10.5
  },
  {
    "molecule": "Cc1nc(-c2ccccc2)sc1C(=O)NCCNc1ncccn1",
    "obs.value": 6.4
  },
  {
    "molecule": "COCC1CN(C(=O)c2cccn2C)Cc2ncnn2C1 (stereo unspecified)",
    "obs.value": -2.15
  },
  {
    "molecule": "CS(=O)(=O)N1CCC(C(=O)NC(Cc2ccsc2)c2ccccn2)CC1 (stereo unspecified)",
    "obs.value": 5.38
  },
  {
    "molecule": "Cc1ccc(NC(=O)c2n[nH]c(-n3cnnc3)n2)cc1C",
    "obs.value": 8.47
  },
  {
    "molecule": "CCOCC(O)CN1CCN(C(=O)c2cccc(F)c2)CC1 (stereo unspecified)",
    "obs.value": 0.529
  }
]
